# measurement.notes: Ratio of total drug uptake in brain to blood in Han Wistar rat after 1 hr
# Type: ADME, tissue-based
# condition.notes: brain and blood, read-out: BBR
experimental.endpoint: Kp at 1 h
Form rule: numeric answer, no unit written next to it.

[in] Which Kp at 1 h reading was recorded for the compound Cc1cnc2c(C(=O)N[C@H]3C4CC5CC3C[C@](C#N)(C5)C4)cnn2c1 ?
[out] 1.6

[in] Which Kp at 1 h reading was recorded for the compound O=C(N[C@H]1C2CC3CC1C[C@](O)(C3)C2)c1cnn2cc(Cl)cnc12 ?
[out] 0.3

[in] Which Kp at 1 h reading was recorded for the compound Cc1cnc2c(C(=O)N[C@H]3C4CC5CC3C[C@](O)(C5)C4)cnn2c1 ?
[out] 0.3

[in] Which Kp at 1 h reading was recorded for the compound Cc1ccnc2c(C(=O)N[C@H]3C4CC5CC3C[C@](O)(C5)C4)cnn12 ?
[out] 0.3

[in] Which Kp at 1 h reading was recorded for the compound N#C[C@]12CC3CC(C1)[C@@H](NC(=O)c1cnn4cc(Cl)cnc14)C(C3)C2 ?
[out] 0.6

###

# Test system: human transporter (not named)
# measurement.notes: Apparent permeability of the compound in MDCK cells expressing human transporter […]
# Assay type: ADME, cell-based, Canis lupus familiaris
# condition.notes: dog
experimental.endpoint: Papp (×10⁻⁶ cm/s)
Respond numerically; units are ×10⁻⁶ cm/s and should not be typed.

[in] Which Papp reading was recorded for the molecule Cc1cnc2c(C(=O)N[C@H]3C4CC5CC3C[C@](O)(C5)C4)cnn2c1 ?
[out] 29

[in] Which Papp reading was recorded for the molecule Cc1cnc2c(C(=O)N[C@H]3C4CC5CC3C[C@](C#N)(C5)C4)cnn2c1 ?
[out] 46

[in] Which Papp reading was recorded for the molecule N#C[C@]12CC3CC(C1)[C@@H](NC(=O)c1cnn4cc(Cl)cnc14)C(C3)C2 ?
[out] 41

[in] Which Papp reading was recorded for the molecule O=C(N[C@H]1C2CC3CC1C[C@](O)(C3)C2)c1cnn2cc(Cl)cnc12 ?
[out] 44

[in] Which Papp reading was recorded for the molecule CO[C@]12CC3CC(C1)[C@@H](NC(=O)c1cnn4cc(C)cnc14)C(C3)C2 ?
[out] 49

###

Exercise: for every item that follows, state its recorded logD.
# measurement.notes: Lipophilicity, log D of the compound in octanol at pH 7.4
# Assay type: physicochemical

[in] Which logD reading was recorded for the molecule Cc1ccnc2c(C(=O)N[C@H]3C4CC5CC3C[C@](O)(C5)C4)cnn12 ?
[out] 2

[in] Which logD reading was recorded for the molecule COCc1cc(C)n2ncc(C(=O)N[C@H]3C4CC5CC3C[C@](C#N)(C5)C4)c2n1 ?
[out] 2.4

[in] Which logD reading was recorded for the molecule O=C(N[C@H]1C2CC3CC1C[C@](O)(C3)C2)c1cnn2c(C(F)F)cc(C3CC3)nc12 ?
[out] 2.8

[in] Which logD reading was recorded for the molecule COCc1cc(C)nc2c(C(=O)N[C@H]3C4CC5CC3C[C@](C#N)(C5)C4)cnn12 ?
[out] 2.7

[in] Which logD reading was recorded for the molecule O=C(N[C@H]1C2CC3CC1C[C@](O)(C3)C2)c1cnn2c(C(F)(F)F)ccnc12 ?
[out] 2

[in] Which logD reading was recorded for the molecule Cc1cc(C(F)F)n2ncc(C(=O)N[C@H]3C4CC5CC3C[C@](O)(C5)C4)c2n1 ?
[out] 2.2

[in] Which logD reading was recorded for the molecule Cc1cc(C(F)(F)F)n2ncc(C(=O)N[C@H]3C4CC5CC3C[C@](O)(C5)C4)c2n1 ?
[out] 2.3

[in] Which logD reading was recorded for the molecule Cc1ccnc2c(C(=O)N[C@H]3C4CC5CC3C[C@](C#N)(C5)C4)cnn12 ?
[out] 2.4

[in] Which logD reading was recorded for the molecule COCc1cc(C)n2ncc(C(=O)N[C@H]3C4CC5CC3C[C@](O)(C5)C4)c2n1 ?
[out] 1.8

###

# measurement.notes: Lipophilicity, log D of the compound in octanol at pH 7.4
# Format: physicochemical
Exercise: for every item that follows, state its recorded logD.
Form rule: numeric answer, no unit written next to it.

[in] Which logD reading was recorded for the compound N#C[C@]12CC3CC(C1)[C@@H](NC(=O)c1cnn4cc(CCO)cnc14)C(C3)C2 ?
[out] 1.6

[in] Which logD reading was recorded for the compound Cc1ccn2ncc(C(=O)N[C@H]3C4CC5CC3C[C@](O)(C5)C4)c2n1 ?
[out] 1.9

[in] Which logD reading was recorded for the compound Cc1cnc2c(C(=O)N[C@H]3C4CC5CC3C[C@](O)(C5)C4)cnn2c1 ?
[out] 1.7

[in] Which logD reading was recorded for the compound O=C(NC1C2CC3CC(C2)CC1C3)c1cnn2cccnc12 (stereo unspecified) ?
[out] 3.5

[in] Which logD reading was recorded for the compound O=C(N[C@H]1C2CC3CC1C[C@](O)(C3)C2)c1cnc2cccnn12 ?
[out] 1.2

[in] Which logD reading was recorded for the compound N#C[C@]12CC3CC(C1)[C@@H](NC(=O)c1cnn4cc(Cl)cnc14)C(C3)C2 ?
[out] 2.5

[in] Which logD reading was recorded for the compound COCc1cc(C)nc2c(C(=O)N[C@H]3C4CC5CC3C[C@](O)(C5)C4)cnn12 ?
[out] 2.1

[in] Which logD reading was recorded for the compound O=C(N[C@H]1C2CC3CC1C[C@](O)(C3)C2)c1cnn2cc(Cl)cnc12 ?
[out] 1.8

[in] Which logD reading was recorded for the compound O=C(N[C@H]1C2CC3CC1C[C@](O)(C3)C2)c1cnn2cccnc12 ?
[out] 1.4

[in] Which logD reading was recorded for the compound Cc1cnc2c(C(=O)N[C@H]3C4CC5CC3C[C@](C#N)(C5)C4)cnn2c1 ?
[out] 2.3

[in] Which logD reading was recorded for the compound O=C(N[C@H]1C2CC3CC1C[C@](O)(C3)C2)c1cnn2ccccc12 ?
[out] 1.5

[in] Which logD reading was recorded for the compound N#Cc1cnc2c(C(=O)N[C@H]3C4CC5CC3C[C@](O)(C5)C4)cnn2c1 ?
[out] 0.6

[in] Which logD reading was recorded for the compound Cc1cc(C)n2ncc(C(=O)N[C@H]3C4CC5CC3C[C@](C#N)(C5)C4)c2n1 ?
[out] 2.9

[in] Which logD reading was recorded for the compound COc1cnc2c(C(=O)N[C@H]3C4CC5CC3C[C@](O)(C5)C4)cnn2c1 ?
[out] 1.8

[in] Which logD reading was recorded for the compound CO[C@]12CC3CC(C1)[C@@H](NC(=O)c1cnn4cc(C)cnc14)C(C3)C2 ?
[out] 2.6

[in] Which logD reading was recorded for the compound Cc1cc(C)n2ncc(C(=O)N[C@H]3C4CC5CC3C[C@](O)(C5)C4)c2n1 ?
[out] 2

Data origin, for the record: ChEMBL document CHEMBL3739325
